tested-system: β-galactosidase
Sequence (P00722 2-1024): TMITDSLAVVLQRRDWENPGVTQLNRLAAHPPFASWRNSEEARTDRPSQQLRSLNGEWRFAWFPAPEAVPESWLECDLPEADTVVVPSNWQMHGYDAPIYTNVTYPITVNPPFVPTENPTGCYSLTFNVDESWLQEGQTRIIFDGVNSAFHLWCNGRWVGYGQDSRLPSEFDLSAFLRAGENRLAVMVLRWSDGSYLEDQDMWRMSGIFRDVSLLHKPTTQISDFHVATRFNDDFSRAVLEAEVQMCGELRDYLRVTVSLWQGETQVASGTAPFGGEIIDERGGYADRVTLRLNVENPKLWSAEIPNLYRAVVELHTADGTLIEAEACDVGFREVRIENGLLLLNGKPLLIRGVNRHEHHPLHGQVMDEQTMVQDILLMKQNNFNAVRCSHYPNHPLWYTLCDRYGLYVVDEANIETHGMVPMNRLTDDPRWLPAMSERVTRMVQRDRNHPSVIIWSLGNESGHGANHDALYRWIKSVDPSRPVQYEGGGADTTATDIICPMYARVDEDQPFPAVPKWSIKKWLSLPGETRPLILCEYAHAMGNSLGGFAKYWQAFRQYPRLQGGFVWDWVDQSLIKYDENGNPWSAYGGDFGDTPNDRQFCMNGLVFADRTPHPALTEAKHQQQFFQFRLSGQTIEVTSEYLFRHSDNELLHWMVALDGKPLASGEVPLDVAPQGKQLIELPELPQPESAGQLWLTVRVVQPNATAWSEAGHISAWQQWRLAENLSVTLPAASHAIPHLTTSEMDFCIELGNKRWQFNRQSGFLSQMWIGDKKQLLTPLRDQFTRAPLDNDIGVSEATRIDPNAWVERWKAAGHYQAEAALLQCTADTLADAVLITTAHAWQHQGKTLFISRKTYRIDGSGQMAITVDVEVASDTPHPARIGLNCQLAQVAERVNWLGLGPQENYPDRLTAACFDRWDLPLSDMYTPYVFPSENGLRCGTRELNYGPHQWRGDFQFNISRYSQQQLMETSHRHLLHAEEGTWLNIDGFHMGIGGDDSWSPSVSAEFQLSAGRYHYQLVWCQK
protocol-description: phage TRF on β-galactosidase

binder: KB_A12_B-gal_G05 (scFv, V domains shown) VH: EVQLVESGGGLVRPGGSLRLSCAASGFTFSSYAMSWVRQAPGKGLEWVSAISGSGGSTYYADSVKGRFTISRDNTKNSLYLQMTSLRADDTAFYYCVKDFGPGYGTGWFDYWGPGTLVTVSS VL: AVNWYQQLPGKAPKLLIYAAGRCLDTVNLRRRCKQDSDCLAGCVCGPNGFCGANSGVSDRFSAAKSGTSASLAINGLRSEDEADYYCAAWDDSLNGYVFGTGTKLTVLG
TRF signal: 529000

binder: KB_A12_B-gal_E05 (scFv, V domains shown) VH: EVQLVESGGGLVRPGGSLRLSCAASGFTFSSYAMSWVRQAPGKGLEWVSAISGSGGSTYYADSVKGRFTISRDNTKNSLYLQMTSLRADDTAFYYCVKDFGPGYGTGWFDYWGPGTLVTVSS VL: AVNWYQQLPGKAPKLLIYAAGRCRETSSLRRPCKQDSDCLAGCVCGPNGFCGANSGVSDRFSAAKSGTSASLAINGLRSEDEADYYCAAWDDSLNGYVFGTGTKLTVLG
TRF signal: 312000

binder: KB_A12_B-gal_F11 (scFv, V domains shown) VH: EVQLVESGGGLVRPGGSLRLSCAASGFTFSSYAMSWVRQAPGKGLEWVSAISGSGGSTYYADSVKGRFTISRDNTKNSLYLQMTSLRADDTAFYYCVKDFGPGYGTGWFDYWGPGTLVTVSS VL: AVNWYQQLPGKAPKLLIYAAGRCHETAQIRRRCKQDSDCLAGCVCGPNGFCGANSGVSDRFSAAKSGTSASLAINGLRSEDEADYYCAAWDDSLNGYVFGTGTKLTVLG
TRF signal: 531000

The measurements presented in this section are drawn from patent US20230331827A1.
